# Tested on: S. aureus ATCC 29213
# testProtocol: MIC, broth microdilution
# Assay type: cell-based
# conditionDetails: Staphylococcus aureus, ATCC29213, 24 h, 24-hour incubation, MHB; read-out: MIC90 S. aureus ATCC 29213
Lab note: cut-off is 10 µg/mL. Strictly less in MIC90 is Fulfilled. Exactly 10 µg/mL or more is Not fulfilled.

Worked set:
In [3]: df
Out[3]:
                                   compound  assignedcategory
0  CC(C)=CCOc1cc(OCCCNC(=N)N)cc2oc3cc(OCCCNC(=N)N)ccc3c(=O)c12 [XT17]         Fulfilled
1  CC(C)=CCOc1cc(OCCNC(=N)N)cc2oc3cc(OCCNC(=N)N)ccc3c(=O)c12 [XT42]         Fulfilled
2  CNCCCCCCCCCCCCOc1ccc2c(=O)c3c(OCC=C(C)C)cc(OCCCCCCCCCCCCNC)cc3oc2c1 [XT40]     Not fulfilled
3  CNCCCOc1ccc2c(=O)c3c(OCC=C(C)C)cc(OCCCNC)cc3oc2c1 [XT08]     Not fulfilled
4  CC(C)=CCOc1cc(OCCCCNC(=N)N)cc2oc3cc(OCCCCNC(=N)N)ccc3c(=O)c12 [XT43]         Fulfilled
5  CNCCCCCCCCOc1ccc2c(=O)c3c(OCC=C(C)C)cc(OCCCCCCCCNC)cc3oc2c1 [XT37]         Fulfilled

Problem: For the compound CCCCN(CCCC)CCCOc1ccc2c(=O)c3c(OCC=C(C)C)cc(OCCCN(CCCC)CCCC)cc3oc2c1 [XT10] , is MIC90 under 10 µg/mL?
Not fulfilled

Problem: For the compound CC(C)=CCOc1cc(OCCCN)cc2oc3cc(OCCCN)ccc3c(=O)c12 [XT07] , is MIC90 under 10 µg/mL?
Not fulfilled
